Let's look at some compounds and their measured inhibition at 10 µM.
Measured target: hERG (KCNH2) (Homo sapiens, UniProt Q12809)
Sequence (Q12809 whole entry): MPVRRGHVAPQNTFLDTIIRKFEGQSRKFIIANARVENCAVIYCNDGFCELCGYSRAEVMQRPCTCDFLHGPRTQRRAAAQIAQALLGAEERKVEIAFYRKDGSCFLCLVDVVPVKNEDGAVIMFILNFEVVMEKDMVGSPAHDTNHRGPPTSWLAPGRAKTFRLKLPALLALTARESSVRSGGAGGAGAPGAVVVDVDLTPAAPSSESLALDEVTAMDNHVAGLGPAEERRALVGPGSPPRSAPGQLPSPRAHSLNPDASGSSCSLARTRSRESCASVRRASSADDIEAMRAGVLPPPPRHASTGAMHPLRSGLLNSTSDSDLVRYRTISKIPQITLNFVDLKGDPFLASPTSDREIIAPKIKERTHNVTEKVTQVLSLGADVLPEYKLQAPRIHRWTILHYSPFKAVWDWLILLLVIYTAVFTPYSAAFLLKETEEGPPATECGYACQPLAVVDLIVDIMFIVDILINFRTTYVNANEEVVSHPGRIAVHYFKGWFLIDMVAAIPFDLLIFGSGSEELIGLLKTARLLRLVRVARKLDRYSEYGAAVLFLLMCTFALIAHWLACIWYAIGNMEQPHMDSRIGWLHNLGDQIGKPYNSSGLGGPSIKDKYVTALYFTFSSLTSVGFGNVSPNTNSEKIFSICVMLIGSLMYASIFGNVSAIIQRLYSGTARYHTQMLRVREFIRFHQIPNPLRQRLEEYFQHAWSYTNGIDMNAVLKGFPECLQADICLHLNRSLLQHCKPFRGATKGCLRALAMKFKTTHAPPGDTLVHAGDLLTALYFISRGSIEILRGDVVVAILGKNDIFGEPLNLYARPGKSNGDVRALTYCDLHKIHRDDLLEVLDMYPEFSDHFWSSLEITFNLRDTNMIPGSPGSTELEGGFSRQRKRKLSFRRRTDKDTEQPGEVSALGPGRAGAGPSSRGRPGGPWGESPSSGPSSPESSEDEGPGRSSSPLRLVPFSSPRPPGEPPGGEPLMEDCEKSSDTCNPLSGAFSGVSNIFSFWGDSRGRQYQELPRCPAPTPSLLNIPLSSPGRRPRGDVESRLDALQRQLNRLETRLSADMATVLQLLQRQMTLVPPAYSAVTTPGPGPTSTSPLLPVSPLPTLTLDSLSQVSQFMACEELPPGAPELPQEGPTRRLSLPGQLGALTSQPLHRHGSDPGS
Experiment notes: Displacement of tracer red from human ERG at 10 uM by fluorescence polarization assay relative to control
Test settings: probe tracer red
The reply should be a number in %, with the unit left off.

Structure smiles string: COc1ccc(N(CCCCc2ccnc(NCCN)c2)C(=O)NCCCn2cncc2C)cc1OC
Measured quantity: inhibition at 10 µM
Readout unit: %
Quantitative result: 40.8
//
Structure smiles string: COc1ccc(N(CC(C)C)C(=S)NCCCn2cncc2C)cc1OC
Measured quantity: inhibition at 10 µM
Readout unit: %
Quantitative result: 39.9

# input for lookup
Exercise: Return inhibition at 10 µM (reported value) for this compound: `COc1ccc(N(Cc2ccc(F)cc2)C(=O)NCCCn2cncc2C)cc1OC`
Solution: 40.6

---

Let's look at some compounds and their measured viability at 18 h, 10 µM.
Experiment notes: Cytotoxicity against mouse HT22 cells assessed as cell viability at 10 uM measured after 18 hrs by MTT assay relative to control
Type: cell-based, HT-22
Test settings: read-out: Activity
The reply should be a number in %, with the unit left off.

Structure smiles string: COc1ccc(N(CCCCc2ccnc(NCCN)c2)C(=O)NCCCn2cncc2C)cc1OC
Readout unit: %
viability at 18 h, 10 µM: 82.2
--
Structure smiles string: COc1ccc(N(Cc2cccc(Cl)c2)C(=S)NCCCn2cncc2C)cc1OC
Readout unit: %
viability at 18 h, 10 µM: 88.2

Exercise: Return viability at 18 h, 10 µM (reported value) for this compound: `COc1ccc(N(C(=S)NCCCn2cncc2C)C(C)C)cc1OC`
Solution: 100

These data points were gathered from ChEMBL document CHEMBL4373720.
